# Experimental Protocol: chemical genetic growth profiling, strain panel (AID 1159580);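 note: tested at 20 µM; growth read once vehicle control cultures reached saturation at 30 °C; 1 = growth at the plate median or of vehicle wells; lower values mean less growth of the strain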
# Condition Info: S. cerevisiae deletion strains, growth OD, locus YGL227W, strain vid30, stronger effect = lower value
In all, about 5,500 compounds went through this assay and about 2,000 (36%) were called active. About 18% were inconclusive and are not listed. Some of the results follow.
Quantity Measured: normalized growth

COc1ccc(C(Cl)=C(c2ccc(OC)cc2)c2ccc(OC)cc2)cc1; 1.02 (inactive)
CC(=O)Nc1cc([As](=O)(O)O)ccc1O; 1.01 (inactive)
C=C(C)[C@H]1CC=C(C(=O)O)CC1; 0.975 (inactive)

Reported normalized growth for CC(C)(C)NC[C@@H](O)COc1nsnc1N1CCOCC1 : what is it?
1.01 (inactive)

Reported normalized growth for CC(=O)c1c(O)c(C)c(O)c2c1OC1=CC(=O)C(C(C)=O)C(=O)C12C (centres undefined) : what is it?
0.946 (inactive)

Reported normalized growth for COc1cccc(/C=C/C(=O)O)c1C(C)C : what is it?
0.985 (inactive)

Reported normalized growth for CO[C@H]1/C=C/O[C@@]2(C)Oc3c(C)c(O)c4c(O)c(c(/C=N/N5CCN(C)CC5)c(O)c4c3C2=O)NC(=O)/C(C)=C\C=C\C(C)[C@H](O)[C@@H](C)[C@@H](O)[C@@H](C)[C@@H](OC(C)=O)[C@@H]1C (some centres undefined) : what is it?
1.04 (inactive)

Reported normalized growth for CCCC(C)C1(CC)C(=O)NC(=O)NC1=O (centres undefined) : what is it?
0.99 (inactive)

Reported normalized growth for CCCC(C)C1(CC)C(=O)N=C(S)NC1=O (centres undefined) : what is it?
0.981 (inactive)

Reported normalized growth for O=C(O)C1=CCNCC1 : what is it?
1.01 (inactive)

Reported normalized growth for Nc1ccc(S(=O)(=O)Nc2ccccn2)cc1 : what is it?
1.02 (inactive)

Reported normalized growth for O=C(O)CCCCC1CCSS1 (centres undefined) : what is it?
0.965 (inactive)

Reported normalized growth for CC(=O)Oc1ccc(Cl)c2cccnc12 : what is it?
0.0677 (active)

Reported normalized growth for CC/C(=C(\c1ccccc1)c1ccc(OCCN(C)C)cc1)c1ccccc1 : what is it?
0.143 (active)

Reported normalized growth for C[n+]1cccc(C(=O)[O-])c1 : what is it?
0.957 (inactive)

Reported normalized growth for CCC(Cc1c(I)cc(I)c(N)c1I)C(=O)O (centres undefined) : what is it?
0.949 (inactive)

====

# Experimental Protocol: chemical genetic growth profiling, strain panel (AID 1159580);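 note: tested at 20 µM; growth read once vehicle control cultures reached saturation at 30 °C; 1 = growth at the plate median or of vehicle wells; lower values mean less growth of the strain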
# Condition Info: S. cerevisiae deletion strains, growth OD, locus YFR019W, strain FAB1, stronger effect = lower value
The whole screen tested about 5,500 compounds, of which about 2,000 (36%) were called active. About 18% were inconclusive and are not listed. The list shows a part of the results.
Mark each entry 1 (yes) if its normalized growth sits below 0.9, and 0 (no) for all others.

Past entries and their recorded results:
Cc1c(C)c(C)c(CSC(N)=Nc2ccc(F)cc2)c(C)c1C; 0 (no)
N#CC(C#N)=C/C=C(/Sc1ccc(F)c(Cl)c1)c1ccc(Cl)cc1; 0 (no)
O=[N+]([O-])c1ccccc1CS(=O)(=O)c1nc2ccccc2s1; 0 (no)
Fc1cccc(Cl)c1CSc1nncn1-c1ccc(OCc2ccccc2)cc1; 0 (no)
O=C(NC(=S)Nc1cccc(C(F)(F)F)c1)c1ccc2nonc2c1; 0 (no)

Consider O=[N+]([O-])/C=C/c1ccsc1 . Does its normalized growth lie strictly below 0.9?
1 (yes)

Consider CC(C)c1ccc(N2C=Nc3ccc(C(C)C)cc3C2)cc1 . Does its normalized growth lie strictly below 0.9?
0 (no)

Consider Fc1cccc(F)c1NC(=S)Nc1cc(C(F)(F)F)cc(C(F)(F)F)c1 . Does its normalized growth lie strictly below 0.9?
0 (no)

Consider Cn1c(CSCCOc2ccccc2)nnc1SCc1ccc(Cl)cc1Cl . Does its normalized growth lie strictly below 0.9?
0 (no)

Consider O=C(c1ccc2ccccc2c1)N1CCN(c2ccnc3cc(Cl)ccc23)CC1 . Does its normalized growth lie strictly below 0.9?
0 (no)

Consider C=CCOc1ccc(/C=C/[N+](=O)[O-])cc1 . Does its normalized growth lie strictly below 0.9?
1 (yes)
